Where a name gives a salt, the structure may show the parent alone.

# Compound, melting point
records = [
    ("CCCn1c(COCC)nc2c(N)nc3ccc(OC4CCN(C(=O)C(C)C)CC4)cc3c21 [Example 414]", "177 to 179 °C"),
    ("CCOCc1nc2c(N)nc3cc(OCCCCCCNS(C)(=O)=O)ccc3c2n1CC(C)(C)NC(=O)NC(C)C [Example 371]", "190 to 194 °C"),
    ("CCOCc1nc2c(N)nc3cc(OCCCCCCNS(C)(=O)=O)ccc3c2n1CC(C)(C)NS(C)(=O)=O [Example 45]", "176 to 180 °C"),
    ("CCCn1c(COCC)nc2c(N)nc3ccc(OC4CCOC4)cc3c21 (stereo not shown) [Example 406]", "173 to 175 °C"),
    ("CCOCc1nc2c(N)nc3cc(OC4CCNCC4)ccc3c2n1CC(O)CO (stereo not shown) (as salt: hydrochloride)", "278 to 280 °C"),
    ("CCCn1c(COCC)nc2c(N)nc3ccc(OCCNC(=O)N4CCOCC4)cc3c21 [Example 4]", "203 to 208 °C"),
    ("CCCn1c(COCC)nc2c(N)nc3ccc(OCC(=O)N4CCS(=O)(=O)CC4)cc3c21 [Example 565]", "223 to 225 °C"),
    ("CCCCc1nc2c(N)nc3ccc(OCCC4CCN(C(=O)N5CCOCC5)CC4)cc3c2n1C [Example 42]", "152.8 °C (dec.)"),
    ("CCCn1c(COCC)nc2c(N)nc3ccc(OC(=O)N4CCOCC4)cc3c21 [Example 570]", "193 to 196 °C"),
    ("CCOCc1nc2c(N)nc3cc(OC4CCN(C(=O)OC(C)(C)C)CC4)ccc3c2n1CC(C)(C)O [Example 563]", "214 to 215 °C (dec.)"),
    ("CCCn1c(COCC)nc2c(N)nc3ccc(OCCNC(=O)N4CCOCC4)cc3c21 (as salt: hydrochloride) [Example 4]", "200 to 202 °C"),
    ("CCCn1c(COCC)nc2c(N)nc3ccc(OC4CCNCC4)cc3c21 [Example 411]", "176 to 178 °C"),
    ("CCOCc1nc2c(N)nc3cc(OCCCN4CCCC4=O)ccc3c2n1CCCCN (as salt: hydrochloride) [Example 398, dihydrochloride]", "> 250 °C"),
    ("CCCCc1nc2c(N)nc3ccc(OCCC4CCN(S(C)(=O)=O)CC4)cc3c2n1C [Example 41]", "198 to 199.5 °C"),
    ("CCc1nc2c(N)nc3cc(OCC(=O)C(C)(C)C)ccc3c2n1CCOc1ccccc1 [Example 52]", "238 to 239 °C (dec.)"),
    ("CCCCc1nc2c(N)nc3ccc(OCC(=O)N4CCOCC4)cc3c2n1C [Example 32]", "256.8 to 257.2 °C"),
]

###

Where a name gives a salt, the structure may show the parent alone.
Outcome Measure: melting point

# Compound, Outcome Measure, Observed Value
records = [
    ("CCOCc1nc2c(N)nc3cc(OCCN4CCOCC4)ccc3c2n1CC(C)(C)O", "melting point", "161 to 163 °C"),
    ("CCc1nc2c(N)nc3cc(OCCNC(=O)NC(C)C)ccc3c2n1CC1CCOCC1", "melting point", "223 to 225 °C"),
    ("CCCc1nc2c(N)nc3cc(OCCCNC(=O)OC(C)(C)C)ccc3c2n1CC(C)C", "melting point", "162.5 to 164 °C"),
    ("CCOCc1nc2c(N)nc3cc(OC4CCN(C(C)=O)CC4)ccc3c2n1CC(C)(C)O", "melting point", "162 to 164 °C"),
    ("CCCc1nc2c(N)nc3cc(OCCCNC(=O)c4cccnc4)ccc3c2n1CC(C)C", "melting point", "172 to 174 °C"),
    ("CCCn1c(COCC)nc2c(N)nc3ccc(OCCCN4CCCC4=O)cc3c21", "melting point", "188.5 to 190 °C"),
    ("CCOCc1nc2c(N)nc3cc(OCCCN4CCCC4=O)ccc3c2n1CCCCNS(C)(=O)=O", "melting point", "157 °C"),
    ("CCCn1c(CCOC)nc2c(N)nc3cc(OCCCNC(=O)OC(C)(C)C)ccc3c21", "melting point", "133.5 to 135 °C"),
    ("CCCn1c(CCOC)nc2c(N)nc3cc(OC4CCOC4)ccc3c21 (centres unmarked)", "melting point", "192 to 194 °C"),
    ("CCCn1c(COCC)nc2c(N)nc3ccc(OCCNC(=O)C(C)C)cc3c21 (as salt: hydrochloride)", "melting point", "240 to 242 °C"),
    ("CCOCc1nc2c(N)nc3cc(OC4CCN(C(=O)OC(C)(C)C)CC4)ccc3c2n1CC1COC(C)(C)O1 (centres unmarked)", "melting point", "158 to 159 °C"),
    ("Cc1nc2c(N)nc3cc(OCCNC(=O)OC(C)(C)C)ccc3c2n1CC(C)C", "melting point", "226.9 to 228.2 °C"),
    ("CCCn1c(COCC)nc2c(N)nc3ccc(OCCNC(=O)C4CCCO4)cc3c21 (centres unmarked)", "melting point", "202.5 to 204.5 °C"),
    ("CCCn1c(CCO)nc2c(N)nc3cc(OCCCNC(=O)c4cccnc4)ccc3c21", "melting point", "183.5 to 184.5 °C"),
    ("CCCCc1nc2c(N)nc3ccc(OCCC4CCN(C(=O)C5CCCC5)CC4)cc3c2n1C", "melting point", "147.2 to 150.1 °C"),
    ("CCCn1c(CCOC)nc2c(N)nc3cc(OCCCS(C)(=O)=O)ccc3c21", "melting point", "170 to 171 °C"),
    ("CCCc1nc2c(N)nc3cc(OCCCNC(=O)N4CCOCC4)ccc3c2n1CC(C)C", "melting point", "145 °C"),
    ("CCCn1c(COC)nc2c(N)nc3ccc(OCCCN4CCOCC4)cc3c21", "melting point", "193 to 196 °C"),
    ("CCc1nc2c(N)nc3cc(OS(C)(=O)=O)ccc3c2n1CCOc1ccccc1 (as salt: methanesulfonate)", "melting point", "213 to 214.5 °C"),
    ("Cc1nc2c(N)nc3cc(OCCNC(=O)N4CCOCC4)ccc3c2n1CC(C)C", "melting point", "215 to 219 °C (dec.)"),
    ("Cc1nc2c(N)nc3cc(OCCC4CCN(C(=O)N5CCOCC5)CC4)ccc3c2n1CC(C)C", "melting point", "205 to 208 °C"),
    ("CCCc1nc2c(N)nc3cc(OCCC4CCN(C(=O)OC(C)(C)C)CC4)ccc3c2n1CC(C)C", "melting point", "196.4 to 199.6 °C"),
    ("CCc1nc2c(N)nc3cc(OCC(=O)N4CCOCC4)ccc3c2n1CC(C)C", "melting point", "219 to 220 °C"),
    ("CCOCc1nc2c(N)nc3cc(OCCCCCCNC(=S)NC(C)C)ccc3c2n1CC(C)(C)NC(C)=O", "melting point", "110 to 120 °C"),
    ("CCCn1c(CCOC)nc2c(N)nc3cc(OC4CCN(C(=O)C(C)C)CC4)ccc3c21", "melting point", "165 to 166 °C"),
    ("CCCn1c(COCC)nc2c(N)nc3ccc(OC4CCN(S(C)(=O)=O)CC4)cc3c21", "melting point", "240 to 243.5 °C"),
]

###

melting point values by entry

# Molecule, melting point
records = [
    ("CCCn1c(COCC)nc2c(N)nc3ccc(OC4CCN(C(=O)OC(C)(C)C)CC4)cc3c21 [Example 410]", "179.5 to 181 °C"),
    ("CCCn1c(COC)nc2c(N)nc3ccc(OCCCN4CCN(c5ccccn5)CC4)cc3c21 [Example 657]", "196 to 197 °C"),
    ("CCOCc1nc2c(N)nc3cc(OCCCN4CCCC4=O)ccc3c2n1CCCCNC(=O)OC(C)(C)C [Example 397]", "134.5 to 136 °C"),
    ("CCCn1c(CCO)nc2c(N)nc3cc(OCCCNC(=O)C(C)C)ccc3c21 [Example 395]", "190.5 to 192 °C"),
    ("CCCn1c(COCC)nc2c(N)nc3cc(OC4CCN(C(=O)NC(C)C)CC4)ccc3c21 [Example 417]", "163 to 164.5 °C"),
    ("CCCn1c(CCOC)nc2c(N)nc3cc(OC4CCN(C(=O)NC(C)C)CC4)ccc3c21 [Example 388]", "176 to 179 °C"),
]

###

melting point values by entry

# Smiles Structure, melting point
measured = [
    ("CCCn1c(COCC)nc2c(N)nc3ccc(OC4CCN(C(=O)NC(C)C)CC4)cc3c21", "236.5 to 239 °C"),
    ("CCCn1c(COCC)nc2c(N)nc3cc(OCCN4CCOCC4)ccc3c21", "191 to 192 °C"),
    ("CCOCc1nc2c(N)nc3cc(OCCCCCCNC(C)=O)ccc3c2n1CC(C)(C)NS(C)(=O)=O", "169 to 171 °C"),
    ("CCCn1c(COCC)nc2c(N)nc3ccc(OCCCCCCNC(=O)C(C)C)cc3c21", "136 to 138 °C"),
]
